# Tested on: YT (IL-2 2.5 ng/mL)
# RUN_DESCRIPTION: drug sensitivity score (DSS) (DSS units); higher = more sensitive; extreme values may be limits of the assay
# CONDITION_LABEL: 72 h

>  <COMPOUND>
C[C@H](Nc1ncnc2nc[nH]c12)c1cc2cccc(Cl)c2c(=O)n1-c1ccccc1 [Duvelisib] (max concentration tested 500 nM)

>  <drug sensitivity score>
0.15

$$$$
>  <COMPOUND>
O=C(O)CCCc1ccc(N(CCCl)CCCl)cc1 [Chlorambucil] (max concentration tested 10000 nM)

>  <drug sensitivity score>
0

$$$$
>  <COMPOUND>
O=C(Nc1cc(Cl)cc2c1[nH]c1cnccc12)c1cccnc1 [PS-1145] (max concentration tested 25000 nM)

>  <drug sensitivity score>
0.38

$$$$
>  <COMPOUND>
CN(Cc1cnc2nc(N)nc(N)c2n1)c1ccc(C(=O)N[C@@H](CCC(=O)O)C(=O)O)cc1 [Methotrexate] (max concentration tested 5000 nM)

>  <drug sensitivity score>
20.5

$$$$

====

# Test system: normal primary NK cells, pool 2 (3 donors) (IL-2 2.5 ng/mL)
# RUN_DESCRIPTION: percent inhibition of viability; higher = more inhibition
# CONDITION_LABEL: 72 h; 100 nM
ENDPOINT_LABEL: percent inhibition of viability (%)

>  <COMPOUND>
C[C@]12C=CC(=O)C=C1CC[C@@H]1[C@@H]2[C@@H](O)C[C@@]2(C)[C@H]1CC[C@]2(O)C(=O)CO [Prednisolone] (max concentration tested 10000 nM)

>  <ENDPOINT_LABEL>
percent inhibition of viability

>  <U>
%

>  <ASSAY_VALUE>
28.6

$$$$
>  <COMPOUND>
Cc1cccc(-c2nn3c(c2-c2ccnc4ccc(C(N)=O)cc24)CCC3)n1 [Galunisertib] (max concentration tested 1000 nM)

>  <ENDPOINT_LABEL>
percent inhibition of viability

>  <U>
%

>  <ASSAY_VALUE>
-15

$$$$
>  <COMPOUND>
Cn1c(CCCC(=O)O)nc2cc(N(CCCl)CCCl)ccc21 [Bendamustine] (max concentration tested 10000 nM)

>  <ENDPOINT_LABEL>
percent inhibition of viability

>  <U>
%

>  <ASSAY_VALUE>
1.7

$$$$
>  <COMPOUND>
COc1cc([C@@H]2c3cc4c(cc3[C@@H](O[C@@H]3O[C@@H]5CO[C@@H](C)O[C@H]5[C@H](O)[C@H]3O)[C@H]3COC(=O)[C@H]23)OCO4)cc(OC)c1O [Etoposide] (max concentration tested 10000 nM)

>  <ENDPOINT_LABEL>
percent inhibition of viability

>  <U>
%

>  <ASSAY_VALUE>
0.34

$$$$
>  <COMPOUND>
O=C(O)CC[C@H]1CC[C@@](c2cc(F)ccc2F)(S(=O)(=O)c2ccc(Cl)cc2)CC1 [MK-0752] (max concentration tested 1000 nM)

>  <ENDPOINT_LABEL>
percent inhibition of viability

>  <U>
%

>  <ASSAY_VALUE>
-3.82

$$$$

====

# Tested on: DERL-7 (IL-2 2.5 ng/mL)
# RUN_DESCRIPTION: percent inhibition of viability; higher = more inhibition
# CONDITION_LABEL: 72 h; 10000 nM
ENDPOINT_LABEL: percent inhibition of viability

>  <COMPOUND>
N#CC1(c2ccc(NC(=O)c3cccnc3NCc3ccncc3)cc2)CCCC1 [Apatinib] (max concentration tested 10000 nM)

>  <ENDPOINT_LABEL>
percent inhibition of viability

>  <ASSAY_VALUE>
1.97%

$$$$
>  <COMPOUND>
COc1cc(OC)c(/C=C/S(=O)(=O)Cc2ccc(OC)c(NCC(=O)O)c2)c(OC)c1 [Rigosertib] (max concentration tested 10000 nM)

>  <ENDPOINT_LABEL>
percent inhibition of viability

>  <ASSAY_VALUE>
97.8%

$$$$
>  <COMPOUND>
CCN(CC)CCOc1ccc(C(=C(Cl)c2ccccc2)c2ccccc2)cc1 [Clomifene] (max concentration tested 10000 nM)

>  <ENDPOINT_LABEL>
percent inhibition of viability

>  <ASSAY_VALUE>
79.7%

$$$$

====

# Test system: IMC-1 (IL-2 20 ng/mL)
# RUN_DESCRIPTION: relative IC50 (inflection point of fitted viability curve, relative to fitted max inhibition); higher = less sensitive
# CONDITION_LABEL: 72 h
ENDPOINT_LABEL: relative IC50 (µM)

>  <STRUCTURE_SMILES>
CC[C@H](CC#N)OC(=O)N[C@@H](C)c1cccc(NC(=O)Nc2ccc(-c3cnco3)c(OC)c2)c1

>  <TARGET_UNDER_TEST>
IMC-1 (IL-2 20 ng/mL)

>  <RELATIONAL_OPERATOR>
=

>  <ASSAY_VALUE>
0.622

$$$$
>  <STRUCTURE_SMILES>
COc1cccc2c1C(=O)c1c(O)c3c(c(O)c1C2=O)C[C@@](O)(/C(CO)=N/NC(=O)CCCCCN1C(=O)C=CC1=O)C[C@@H]3O[C@H]1C[C@H](N)[C@H](O)[C@H](C)O1

>  <TARGET_UNDER_TEST>
IMC-1 (IL-2 20 ng/mL)

>  <RELATIONAL_OPERATOR>
=

>  <ASSAY_VALUE>
0.0446

$$$$
>  <STRUCTURE_SMILES>
CCCc1cc(C)[nH]c(=O)c1CNC(=O)c1cc(-c2ccnc(N3CCN(C)CC3)c2)cc2c1cnn2C(C)C

>  <TARGET_UNDER_TEST>
IMC-1 (IL-2 20 ng/mL)

>  <RELATIONAL_OPERATOR>
=

>  <ASSAY_VALUE>
3.63

$$$$
>  <STRUCTURE_SMILES>
Cn1c(=O)n(-c2ccc(C(C)(C)C#N)cc2)c2c3cc(-c4cnc5ccccc5c4)ccc3ncc21

>  <TARGET_UNDER_TEST>
IMC-1 (IL-2 20 ng/mL)

>  <RELATIONAL_OPERATOR>
=

>  <ASSAY_VALUE>
0.198

$$$$
>  <STRUCTURE_SMILES>
Cc1cc2c(F)c(Oc3ncnn4cc(OC[C@@H](C)O)c(C)c34)ccc2[nH]1

>  <TARGET_UNDER_TEST>
IMC-1 (IL-2 20 ng/mL)

>  <RELATIONAL_OPERATOR>
>

>  <ASSAY_VALUE>
1

$$$$
>  <STRUCTURE_SMILES>
COc1cc(Nc2ncc(F)c(Nc3ccc4c(n3)N(COP(=O)(O)O)C(=O)C(C)(C)O4)n2)cc(OC)c1OC

>  <TARGET_UNDER_TEST>
IMC-1 (IL-2 20 ng/mL)

>  <RELATIONAL_OPERATOR>
>

>  <ASSAY_VALUE>
2.5

$$$$
>  <STRUCTURE_SMILES>
O=C(O)c1ccc(-c2c[nH]c3ncc(-c4ccccc4)cc23)cc1C1CCCC1

>  <TARGET_UNDER_TEST>
IMC-1 (IL-2 20 ng/mL)

>  <RELATIONAL_OPERATOR>
=

>  <ASSAY_VALUE>
3.04

$$$$
>  <STRUCTURE_SMILES>
CC1(COc2ccc3c(c2)ncn3-c2ccc3cccc(N4CCC(N)CC4)c3n2)COC1

>  <TARGET_UNDER_TEST>
IMC-1 (IL-2 20 ng/mL)

>  <RELATIONAL_OPERATOR>
=

>  <ASSAY_VALUE>
2.71

$$$$
>  <STRUCTURE_SMILES>
CCc1cnn2c(NCc3ccc[n+]([O-])c3)cc(N3CCCC[C@H]3CCO)nc12

>  <TARGET_UNDER_TEST>
IMC-1 (IL-2 20 ng/mL)

>  <RELATIONAL_OPERATOR>
=

>  <ASSAY_VALUE>
0.011

$$$$
>  <STRUCTURE_SMILES>
Cc1cccc(-c2nn3c(c2-c2ccnc4ccc(C(N)=O)cc24)CCC3)n1

>  <TARGET_UNDER_TEST>
IMC-1 (IL-2 20 ng/mL)

>  <RELATIONAL_OPERATOR>
>

>  <ASSAY_VALUE>
1

$$$$

====

# Tested on: KHYG-1 (IL-2 2.5 ng/mL)
# RUN_DESCRIPTION: percent inhibition of viability; higher = more inhibition
# CONDITION_LABEL: 72 h; 100 nM
Overview of reported percent inhibition of viability across a group of compounds:

>  <COMPOUND>
CC(C)Oc1cc(Nc2nc(N[C@@H](C)c3ccc(F)cn3)ncc2Cl)n[nH]1 [AZ-23] (max concentration tested 1000 nM)

>  <U>
%

>  <percent inhibition of viability>
3.55

$$$$
>  <COMPOUND>
CO[C@H]1C[C@@H]2CC[C@@H](C)[C@@](O)(O2)C(=O)C(=O)N2CCCC[C@H]2C(=O)O[C@H]([C@H](C)C[C@@H]2CC[C@@H](OCCO)[C@H](OC)C2)CC(=O)[C@H](C)/C=C(\C)[C@@H](O)[C@@H](OC)C(=O)[C@H](C)C[C@H](C)/C=C/C=C/C=C/1C [Everolimus] (max concentration tested 100 nM)

>  <U>
%

>  <percent inhibition of viability>
28.2

$$$$
>  <COMPOUND>
NC1(c2ccc(-c3nc4ccn5c(=O)[nH]nc5c4cc3-c3ccccc3)cc2)CCC1 [MK-2206] (max concentration tested 1000 nM)

>  <U>
%

>  <percent inhibition of viability>
6.05

$$$$
>  <COMPOUND>
Cn1cc(C2=C(c3cn(C4CCN(Cc5ccccn5)CC4)c4ccccc34)C(=O)NC2=O)c2ccccc21 [Enzastaurin] (max concentration tested 10000 nM)

>  <U>
%

>  <percent inhibition of viability>
5.25

$$$$
>  <COMPOUND>
CCCc1cc(C)[nH]c(=O)c1CNC(=O)c1cc(-c2ccnc(N3CCN(C)CC3)c2)cc2c1cnn2C(C)C [GSK343] (max concentration tested 10000 nM)

>  <U>
%

>  <percent inhibition of viability>
-6.82

$$$$
>  <COMPOUND>
O=C(NC[C@H](O)CO)c1ccncc1Nc1ccc(I)cc1F [Pimasertib] (max concentration tested 10000 nM)

>  <U>
%

>  <percent inhibition of viability>
31.9

$$$$
>  <COMPOUND>
NC(=O)c1cccc(-c2cccc(OC(=O)NC3CCCCC3)c2)c1 [URB597] (max concentration tested 1000 nM)

>  <U>
%

>  <percent inhibition of viability>
2.83

$$$$
>  <COMPOUND>
CN1CCN(c2nc(C3=C(c4c[nH]c5ccccc45)C(=O)NC3=O)c3ccccc3n2)CC1 [Sotrastaurin] (max concentration tested 10000 nM)

>  <U>
%

>  <percent inhibition of viability>
1.66

$$$$
>  <COMPOUND>
O=C(CCCCCCNC(=O)c1cnc(N(c2ccccc2)c2ccccc2)nc1)NO [Rocilinostat] (max concentration tested 10000 nM)

>  <U>
%

>  <percent inhibition of viability>
-3.42

$$$$
>  <COMPOUND>
CCC1(c2ccc(N)cc2)CCC(=O)NC1=O (stereo unspecified) [Aminoglutethimide] (max concentration tested 10000 nM)

>  <U>
%

>  <percent inhibition of viability>
11

$$$$
>  <COMPOUND>
C=CCN(/C=C1/C(=O)O[C@H](COC)[C@@]2(C)C1=C(O)C(=O)C1=C2[C@H](OC(C)=O)C[C@]2(C)C(=O)CC[C@@H]12)CC=C [Sonolisib] (max concentration tested 10000 nM)

>  <U>
%

>  <percent inhibition of viability>
-5.87

$$$$
